Values from patent US20140178394A1

# experimental target: T1, HLA-A*0201 HLA class I MHC monomer (iTopia Epitope Discovery System, coated on plate) (human)
# T1 construct: Placeholder peptide stripped; also called HLA-A2; MHC class I monomer
# run description: iTopia EDS peptide binding assay on plate-coated MHC monomer; % of positive control peptide

binder	unit info	% Binding
ALLHSKYGL (Synthetic nonapeptide of human nectin4; the range counts on nectin4; also called Pep N° 80) [Nectin4 peptide 80 (ALLHSKYGL)]	%	87
VVVGVIAAL (Synthetic nonapeptide of human nectin4; the range counts on nectin4) [Nectin4 peptide 351 (VVVGVIAAL)]	%	58
VIAALLFCL (Synthetic nonapeptide of human nectin4; the range counts on nectin4) [Nectin4 peptide 355 (VIAALLFCL)]	%	59
FLAEASVRG (Synthetic nonapeptide of human nectin4; the range counts on nectin4) [Nectin4 peptide 244 (FLAEASVRG)]	%	78
FQARLRLRV (Synthetic nonapeptide of human nectin4; the range counts on nectin4) [Nectin4 peptide 137 (FQARLRLRV)]	%	69
DQNLWHIGR (Synthetic nonapeptide of human nectin4; the range counts on nectin4) [Nectin4 peptide 255 (DQNLWHIGR)]	%	62
